The values you see were collected from ChEMBL document CHEMBL3232809.

System: Staphylococcus aureus
assay summary: Antimicrobial activity against methicillin-sensitive Staphylococcus aureus ATCC 13709
Type: functional
Measured MIC accompanies every entry in the list below.

Below are worked cases with known answers.
Consider the compound CCCCCCCCC/C(NC(C)CCCN(CC)CC)=C1/C(=O)N2[C@@H](C(C)(C)C)OC[C@]2(C(=O)OC)C1=O (some centres not stated) and give its measured MIC.
16 µg/mL

Consider the compound COC(=O)[C@@]12CO[C@@H](C(C)(C)C)N1C(=O)/C(=C(\C)Nc1ccccc1)C2=O and give its measured MIC.
> 32 µg/mL

Consider the compound CCCC(=O)N1CC(=O)/C(=C(\CC23CC4CC(C)(CC(C)(C4)C2)C3)NCCCN2CCOCC2)C1=O and give its measured MIC.
> 64 µg/mL

Consider the compound CCOC(=O)[C@]12CO[C@H](C(C)(C)C)N1C(=O)/C(=C(/CC13CC4CC(CC(C4)C1)C3)NCC(C)(C)CN(C)C)C2=O and give its measured MIC.
> 32 µg/mL

Consider the compound COC(=O)[C@]12CO[C@H](C(C)(C)C)N1C(=O)/C(=C(/CCCOc1ccccc1)NCCN1CCCCC1)C2=O and give its measured MIC.
> 32 µg/mL

Further cases:
Consider the compound CCCCCCCCCCCCC/C(Nc1ccccc1)=C1\C(=O)CNC1=O and give its measured MIC.
> 32 µg/mL

Consider the compound CCCCCCCCCCCCC/C(NCCCNC(=O)COCC(=O)O)=C1\C(=O)CN(CCCCCC)C1=O and give its measured MIC.
> 64 µg/mL

Consider the compound CCCCCCCCCCC/C(Nc1ccc(NC(=O)COCC(=O)O)cc1)=C1\C(=O)CN(CCCCCC)C1=O and give its measured MIC.
> 64 µg/mL
